Examples of binders with documented EC50 follow.
- TARGET SYSTEM: T1, human CD36 (on HEK 293 or SCC25 cells) (human, UniProt P16671 2-472)
- T1 construct: Overexpressed transiently or stably on HEK 293 cells, or stably on SCC25 cells; also called huCD36
- T1 sequence (P16671 2-472 limits assumed): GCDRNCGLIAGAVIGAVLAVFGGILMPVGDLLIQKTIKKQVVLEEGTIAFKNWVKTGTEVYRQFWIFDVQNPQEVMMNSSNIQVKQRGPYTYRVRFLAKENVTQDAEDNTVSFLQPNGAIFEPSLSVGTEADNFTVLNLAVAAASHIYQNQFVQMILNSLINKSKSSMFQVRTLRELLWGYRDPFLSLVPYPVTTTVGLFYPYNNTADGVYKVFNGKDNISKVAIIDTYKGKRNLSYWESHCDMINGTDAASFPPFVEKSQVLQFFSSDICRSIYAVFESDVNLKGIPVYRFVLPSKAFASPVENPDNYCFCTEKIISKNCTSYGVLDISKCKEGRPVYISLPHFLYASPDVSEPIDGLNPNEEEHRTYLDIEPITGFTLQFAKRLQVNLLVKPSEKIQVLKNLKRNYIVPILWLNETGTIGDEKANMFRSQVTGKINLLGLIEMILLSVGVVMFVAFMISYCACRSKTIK
- METHOD NOTES: FACS, HEK 293 cells transiently overexpressing CD36;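 further: antibody binding to transfected cells detected by flow cytometry with a fluorescent anti-human secondary antibody, EC50 from a four-parameter sigmoidal fit of mean fluorescence intensity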

{"BINDER": "27G04 (antibody, human IgG1, V domains shown, Chimeric: mouse variable regions on human IgG1 LALA (L234A/L235A)) VH: EVQLQQSGAELLKPGASVKISCKTTGYTFSNYWIEWVKQRPGHGLEWIGEILPGSGSPKYNEKFKGKATLTADTSSNTAFMQLSSLTSEDSAVYYCAPFILENYFDYWGQGTTLTVSS VL: DIQMTQSHKFMSTSVGDRVSITCKASQDVSTAVAWYQQKPGQSPKLLIYSASYRYTGVPDRFTGSGSGTDFTFTISSVQAEDLAVYYCQQHYSTPRTFGGGTKLEIK", "EC50 / nM": 0.91}
{"BINDER": "34G04 (antibody, human IgG1, V domains shown, Chimeric: chicken variable regions on human IgG1 LALA (L234A/L235A); also called 034G04) VH: AVTLDESGGGLQTPGGALSLVCKASGFDFSSYAMGWVRQAPGKGLEWVAGKAKDGGGTAYGSAVKGRATISRDNGQSTVRLQLSNLRAEDTGVYYCAKSAYGDWFYGSSGPYADSIDAWGHGTEVIVSS VL: ALTQPSSVSANPGETVKITCSGGDNYAGSYYYGWYQQKSPGSAPVTVIYDDTNRPADIPSRFSGSTSGSTNTLTITGVRAEDEAVYFCGGWDSINDRNIFGAGTTLTVL", "EC50 / nM": 0.56}
{"BINDER": "36G04 (antibody, human IgG1, V domains shown, Chimeric: chicken variable regions on human IgG1 LALA (L234A/L235A); also called 036G04) VH: AVTLDESGGGLQTPGGALSLVCKASGFIFSSYGMGWVRQAPGKGLEYIAAISNDGSKADYGAAVKGRATISRDNGQSTVRLQLNNLRAEDTATYYCAKSADTGYCSWSACIADSIDAWGHGTEVIVSS VL: ALTQPSSVSAIPGETVKITCSGGGSDYGWYQQKSPGSAPVTVIYWSDNRPSNIPSRFSGSESGSTATLTITGVRAEDEAVYFCGGYDSSGSGMFGAGTTLTVL", "EC50 / nM": 0.33}
{"BINDER": "11G04 (antibody, human IgG1, V domains shown, Chimeric: mouse variable regions on human IgG1 LALA (L234A/L235A); also called 011G04) VH: EVQLQQSGAELVRPGASVTLSCKASGYRFSDYEMQWVKQTPVHGLEWIGGIDPETGGIAYNQKFKVKATLTADKSSSTAFMELRSLTSEDSAVYYCTRKLDFDYWGQGTTLTVSS VL: ETTVTQSPASLSVATGEKVTIRCITSTDIDDDMNWYQQKPGEPPKLLISEGNTLRPGVPSRFSSSGYGTDFVFTIENMLSEDVADYYCLQSDNLPLTFGAGTKLELK", "EC50 / nM": 0.45}
{"BINDER": "12G04 (antibody, human IgG1, V domains shown, Chimeric: mouse variable regions on human IgG1 LALA (L234A/L235A); also called 012G04) VH: EVQLVESGGGLVQPGESLKLSCESNEYEFPSHDMSWVRKTPEKRLELVAAINSDGGYTYYPDTMERRFIISRDNTKKTLYLQMSSLRSEDTALYYCARHGYDYDEEGAWFAYWGQGTLVTVSA VL: ETTVTQSPASLSMAIGEKVTIRCITSTDIDDDMNWYQQKPGEPPKLLISEGNTLRPGVPSRFSSTGYGTDFVFSIENMLSEDVADYYCLQSDNLPFTFGSGTKLEIK", "EC50 / nM": 0.31}
